System: M14 melanoma
experimental.details: NCI tumour cell line growth inhibition, 48 h
Threshold rule: TGI greater than or equal to 20 µM is rule met; below that, rule not met.

Problem: API: above_or_equal(metric=TGI, cutoff=20 µM) for item `O=c1[nH]cc(N=Cc2cc(Cl)cc(Cl)c2O)c(=O)[nH]1`
Result: rule met

Problem: API: above_or_equal(metric=TGI, cutoff=20 µM) for item CC1=CC2C(O1)C1C(=O)C=CC(=O)C1=CC2[N+](=O)[O-] (configuration not stated)
Result: rule met

Problem: API: above_or_equal(metric=TGI, cutoff=20 µM) for item `COc1ccc2c(c1)/C(=C/c1c(C)nc3sc(C)nn13)C(=O)N2`
Result: rule met

Problem: API: above_or_equal(metric=TGI, cutoff=20 µM) for item `O=C(Nc1ccccc1OC(F)(F)F)Nc1n[nH]c2ccccc12`
Result: rule met

Problem: API: above_or_equal(metric=TGI, cutoff=20 µM) for item Cc1coc2c1CC1(C)C(CCC(O)C1C)C2 (configuration not stated)
Result: rule met

Problem: API: above_or_equal(metric=TGI, cutoff=20 µM) for item `CN1CCN([C@H]2C[C@H]3[C@@H]4CC=C5C[C@@H](O)CC[C@]5(C)[C@H]4CC[C@]3(C)C2=O)CC1`
Result: rule met

Problem: API: above_or_equal(metric=TGI, cutoff=20 µM) for item `O=C1CCC(=O)N1n1c(Cc2ccccc2)n[nH]c1=O`
Result: rule met

Problem: API: above_or_equal(metric=TGI, cutoff=20 µM) for item `CCCCCCCCCCCOc1ccc(C(=O)C(=O)c2ccc(OCCCCCCCCCCC)c(OCCCCCCCCCCC)c2)cc1OCCCCCCCCCCC`
Result: rule met

Problem: API: above_or_equal(metric=TGI, cutoff=20 µM) for item `O=C1C(Cl)=C(Nc2cccc(Cl)c2)C(=O)N1Cc1ccc(Cl)cc1Cl`
Result: rule met

Problem: API: above_or_equal(metric=TGI, cutoff=20 µM) for item `CCNC(=S)N/N=C/c1cc([N+](=O)[O-])ccc1O`
Result: rule met

Problem: API: above_or_equal(metric=TGI, cutoff=20 µM) for item O=C(COc1ccc(Br)cc1Br)N1N=C(c2ccc([N+](=O)[O-])o2)CC1(O)c1ccccc1 (configuration not stated)
Result: rule met

Problem: API: above_or_equal(metric=TGI, cutoff=20 µM) for item `CCCCCCCCCCCCCCCCCC(CCCCCCCCCCCCCCCCC)OP(=O)(O)O`
Result: rule met

Problem: API: above_or_equal(metric=TGI, cutoff=20 µM) for item O=S1(=O)c2ccccc2NC(c2ccc3ccccc3c2)CC1c1ccccc1F (configuration not stated)
Result: rule met

Problem: API: above_or_equal(metric=TGI, cutoff=20 µM) for item CCCCC(=O)OCC(=O)[C@]1(O)Cc2c(O)c3c(c(O)c2[C@@H](OC2CC(NC(=O)C(F)(F)F)C(O)C(C)O2)C1)C(=O)c1c(OC)cccc1C3=O (some centres not stated)
Result: rule not met

Problem: API: above_or_equal(metric=TGI, cutoff=20 µM) for item `Cc1nc2ccccc2c(=O)n1-c1ccccc1I`
Result: rule met

Problem: API: above_or_equal(metric=TGI, cutoff=20 µM) for item O=C(CC1(O)C(=O)Nc2c(Cl)cc(Cl)cc21)c1ccc(Br)cc1Br (configuration not stated)
Result: rule not met

Problem: API: above_or_equal(metric=TGI, cutoff=20 µM) for item COc1ccc(C(=O)C(C(=O)CCC(=O)Nc2ccc(C)c(C)c2)c2ccc(OC)cc2)cc1 (configuration not stated)
Result: rule met

Problem: API: above_or_equal(metric=TGI, cutoff=20 µM) for item `Cc1cc(I)cc(CN(C)CCCCN2CCCCC2)c1O`
Result: rule not met

Problem: API: above_or_equal(metric=TGI, cutoff=20 µM) for item `CCCN=C1CCN(Cc2ccccc2)c2ccccc2N1`
Result: rule met

Problem: API: above_or_equal(metric=TGI, cutoff=20 µM) for item CCOC(=O)C(NC(C)=O)(Nc1ccc(F)cc1)C(F)(F)F (configuration not stated)
Result: rule met

Problem: API: above_or_equal(metric=TGI, cutoff=20 µM) for item `O=C1/C(=C/c2cccc([N+](=O)[O-])c2)COc2ccc(O)cc21`
Result: rule not met

Problem: API: above_or_equal(metric=TGI, cutoff=20 µM) for item `CCOc1ccc(NC(=O)C(=O)CC(=O)c2c[n+](=O)c3cc(C)c(C)cc3n2[O-])cc1`
Result: rule met

Problem: API: above_or_equal(metric=TGI, cutoff=20 µM) for item C=C1C(=O)C23CC1CCC2C12CO[C@@H]4OCC(C)(CC[C@@H]1OC3=O)C42 (some centres not stated)
Result: rule not met

Problem: API: above_or_equal(metric=TGI, cutoff=20 µM) for item `CC(=O)NC1=C(NCCC(C)C)C(=O)c2ccccc2C1=O`
Result: rule met

Problem: API: above_or_equal(metric=TGI, cutoff=20 µM) for item `O=C1C(=Cc2ccc(O)cc2)N=C(c2ccccc2)N1n1c(-c2ccccc2)nc2ccccc2c1=O`
Result: rule met

Problem: API: above_or_equal(metric=TGI, cutoff=20 µM) for item O=C(O)CN(CC(=O)O)C1CCCCC1N(CC(=O)O)CC(=O)NCCN=C=S (configuration not stated)
Result: rule met
